Origin of values: paper PMC5540273

Listed next: entries and their corresponding %Inh.
Tested on: RSK1(Kin.Dom.1-N-terminal)
Construct: gene RPS6KA1
Conditions: concentration: 1 μM, replicates: in singlicate; n = 1;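 note: KINOMEscan kinase panel screen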
Kindly answer with a numeric value in %, unit omitted.

For orientation, consider the following solved cases.
CS(=O)(=O)c1ccc(-c2c(-c3ncn[nH]3)sc(N3CCOCC3)c2C#N)cc1 ... 16
COc1cc2nccc(Nc3ccc(NC(=O)c4ccc(C)cc4)c(O)c3)c2cc1OC.Cl ... 9
Cl.NC(=O)c1cccc(Nc2nccc(Nc3ccc(Oc4cccc(Cl)c4)c(Cl)c3)n2)c1 ... 0
O=C(Nc1n[nH]c2nc(-c3nccs3)c(Br)cc12)C1CC1 ... 9

Qu. Requested read-out: %Inh. Entry: `Nc1ncnc2[nH]c(-c3ccccc3)nc12`
Ans. 15

Qu. Entry under review: `Cn1cncc1-c1ccc2ncnc(Nc3ccc(OCc4ccccc4)cc3)c2c1` . Reported %Inh?
Ans. 0

###

Each entry below lists one item and its recorded %Inh value.
Test system: PRKD1
Conditions: concentration: 1 μM, replicates: in singlicate; n = 1
Number only, in %; omit the unit.

CN(C)CCN(C)C(=O)c1cc(-c2ccncc2)c(-c2ccc(Cl)c(O)c2)o1.Cl.Cl ... 0
O=C(Nc1n[nH]c2nc(-c3nccs3)c(Br)cc12)C1CC1 ... 0
Fc1cccc(COc2nnc(-c3ccc4c(c3)CCO4)o2)c1 ... 0
COC(=O)c1c(-c2ccccc2)c2cc(OC)ccc2c(=O)n1Cc1ccccc1 ... 0

Qu. // returns reported %Inh for input CC1=C(C(=O)Nc2cc3cn[nH]c3cc2F)C(c2ccc(C(F)(F)F)cc2)CC(=O)N1 (stereo not drawn)
Ans. 22

Qu. If you can, please state the reported %Inh value of `Cl.c1ccc(-c2n[nH]cc2-c2ccnc(-c3ccc(CN4CCOCC4)cc3)c2)nc1` .
Ans. 62

Qu. // query %Inh value for entry `Cc1ccc(-c2cc(-c3c[nH]nc3-c3ccccn3)ccn2)cc1`
Ans. 68

Qu. # lookup: %Inh of `Fc1cc(Cl)ccc1Nc1ccnc2cc(I)ccc12`
Ans. 1

Qu. Recorded %Inh of `Cn1cncc1-c1ccc2ncnc(Nc3ccc(OCc4ccccc4)cc3)c2c1` , please.
Ans. 26

###

Tested on: PKN2
Conditions: concentration: 1 μM, replicates: in singlicate; n = 1
Reported %Inh is given for each of the following compounds.
Express your answer in %, writing the number without its unit.

Reference set, count: 3
Cc1ccc(NC(=O)Nc2cccc(Cl)c2)cc1-c1ccc(C(=O)Nc2ccncc2)cc1 ... 0
Cn1ccc2ncnc(Oc3cccc(C(=O)Nc4ccccc4)c3)c21 ... 0
Cc1c(Cn2ccn3c(=O)cc(N4CCOCC4)nc23)cccc1C(F)(F)F ... 5

Qu. Name the reported %Inh value associated with the compound `COC(=O)c1c(-c2ccccc2)c2cc(C(=O)O)ccc2c(=O)n1Cc1ccccc1`
Ans. 0

Qu. Entry under review: `C[C@@H]1CCCCN1c1cc(-c2ccc3c(N)n[nH]c3c2)nc(N)n1` . Reported %Inh?
Ans. 0

Qu. # %Inh lookup, item `COc1ccccc1-c1ccc2c(NC(=O)C3CC3)n[nH]c2n1`
Ans. 2

###

Test system: PIP5K2C
Construct: gene PIP4K2C
Conditions: concentration: 1 μM, replicates: in singlicate; n = 1
Property Name: %Inh (%)
Note: unit % is implicit; provide only the numeric part.

Examples from the recorded data:
Fc1cc(Cl)ccc1Nc1ccnc2cc(-c3ccc(CN4CCCCC4)o3)ccc12 ... 71
Cl.c1ccc(-c2n[nH]cc2-c2ccnc(-c3ccc(CN4CCOCC4)cc3)c2)nc1 ... 0
Cc1cccc(-c2nc(Nc3ccc4[nH]ncc4c3)c3ccccc3n2)n1 ... 0
O=C(Nc1n[nH]c2cc(-c3cccc(F)c3F)ccc12)C1CC1 ... 0
Cc1cccc(-c2nc(C)cc(Nc3ccncc3)n2)n1 ... 0
Cn1ccc2ncnc(Oc3ccc(Nc4nc5ccccc5[nH]4)cc3)c21 ... 16
Fc1cccc(COc2nnc(-c3ccc4c(c3)CCO4)o2)c1 ... 10
Cl.Oc1ccc(-c2nc(-c3ccccc3)[nH]c2-c2ccncc2)cc1 ... 58

Qu. Item under review: `Cc1ccc(-c2cc(-c3c[nH]nc3-c3ccccn3)ccn2)cc1` . Reported %Inh?
Ans. 67

Qu. Recorded %Inh for `Cc1csc(-c2nc(Nc3ccncc3)c3ccccc3n2)n1` , please?
Ans. 2

Qu. For `Fc1cc(Cl)ccc1Nc1ccnc2cc(I)ccc12` , what is its reported %Inh?
Ans. 10

Qu. Which value of %Inh has been reported for `Cc1c(O)cccc1Nc1ccnc2ccc(C(F)(F)F)cc12.Cl` in the records?
Ans. 30

Qu. Entry under review: `Cc1cccc(-c2cc(Nc3ccncc3)c3ccccc3n2)n1` . Reported %Inh?
Ans. 8

Qu. Given the entry `Cc1cccc(-c2nc(Nc3cccc(C(N)=O)c3)c3ccccc3n2)n1` , report its measured %Inh.
Ans. 50
